targetSystem: Aryl hydrocarbon receptor (Homo sapiens) (UniProt P35869)
Sequence (P35869 whole entry, looked up): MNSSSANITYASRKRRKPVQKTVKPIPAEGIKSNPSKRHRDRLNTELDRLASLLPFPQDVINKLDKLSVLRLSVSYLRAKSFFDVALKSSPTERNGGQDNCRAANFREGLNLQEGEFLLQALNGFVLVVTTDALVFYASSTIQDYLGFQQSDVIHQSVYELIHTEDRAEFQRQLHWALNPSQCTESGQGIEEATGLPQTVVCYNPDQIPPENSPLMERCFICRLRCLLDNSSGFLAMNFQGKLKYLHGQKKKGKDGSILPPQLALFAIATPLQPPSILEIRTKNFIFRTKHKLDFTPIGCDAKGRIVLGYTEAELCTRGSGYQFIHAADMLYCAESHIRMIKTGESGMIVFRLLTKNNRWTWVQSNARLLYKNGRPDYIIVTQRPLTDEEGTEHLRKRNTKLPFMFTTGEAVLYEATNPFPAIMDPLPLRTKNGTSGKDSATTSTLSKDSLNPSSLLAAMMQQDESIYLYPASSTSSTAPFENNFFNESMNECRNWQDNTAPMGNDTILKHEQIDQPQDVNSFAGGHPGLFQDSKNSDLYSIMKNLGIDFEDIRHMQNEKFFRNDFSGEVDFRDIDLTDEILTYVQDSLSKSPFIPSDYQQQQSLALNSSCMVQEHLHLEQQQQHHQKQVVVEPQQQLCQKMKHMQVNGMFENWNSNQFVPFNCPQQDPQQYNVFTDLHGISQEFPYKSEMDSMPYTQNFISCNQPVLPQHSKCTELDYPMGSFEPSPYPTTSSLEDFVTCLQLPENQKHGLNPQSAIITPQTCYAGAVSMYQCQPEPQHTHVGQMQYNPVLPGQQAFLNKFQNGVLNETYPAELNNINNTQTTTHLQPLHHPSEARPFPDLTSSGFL
testDetails: qHTS assay to identify small molecule that activate the aryl hydrocarbon receptor (AhR) signaling pathway (AID 743085); note: nearly all actives have a fitted effect of over 15% in size;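 for activation: HG2L7.5c1 human HepG2 liver cells with stably integrated DRE-driven firefly reporter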
conditionSet: HepG2 AhR-luc (HG2L7.5c1), luciferase, 24 h; series mostly up to 70.3 µM
Inconclusive results are not listed. Calls of active or inactive are those of the source. Calls come from the whole dose curve; as a rule, active = well fitted activation curve with a large enough effect in the repeat runs; inconclusive = weak or mixed curves; inactive = no such curve, though single readings can be large or run the other way.
Your reply should match one of these outcome classes. y = active, n = inactive

Task item: Could you check what this test reported for CCc1cccc(C)c1 ?
Reply: n

Task item: How was COC(=O)CC#N classified in this test?
Reply: n

Task item: State the result this test recorded for O=C(O)Cc1ccc(OCCNC[C@H](O)c2ccccc2)cc1 .
Reply: n

Task item: I would be grateful if you could indicate the recorded call for CC=O .
Reply: n

Task item: What was the test verdict on CC(C)(C)C1=CC(=O)C=C(C(C)(C)C)C1=O ?
Reply: n

Task item: Hi, do you know how C1CC(COCC2CO2)CCC1COCC1CO1 (stereo not given) came out in this test?
Reply: n

Task item: Hi, do you know how O=C(O)CCn1c2c(c3ccccc31)C[C@H](NS(=O)(=O)c1ccc(F)cc1)CC2 came out in this test?
Reply: n

Task item: Could you please tell me the result logged for COC(=O)CC(C)CCC=C(C)C (stereo not given) in this assay?
Reply: n

Task item: Lab log entry: CCOC(=O)COc1ccc(C)cc1 — outcome as called in the assay?
Reply: n

Task item: Per the records of this test, what outcome belongs to CC(=O)Nc1ccc(O)cc1 ?
Reply: n

Task item: Lab log entry: COc1cc(C=C2CCC/C(=C\c3ccc(O)c(OC)c3)C2=O)ccc1O — outcome as called in the assay?
Reply: n

Task item: Assay outcome for [O]=[Zr] : what was it?
Reply: n

Task item: I'd appreciate the recorded outcome for S=P(N1CC1)(N1CC1)N1CC1 from this test.
Reply: n

Task item: Test call, this compound: CCCCNc1c(C(=O)OCC)c(C)nc2c1cnn2CC
Reply: y

Task item: What classification did CCCCCCCC/C=C\CCCCCCCC(=O)N(C)CC(=O)O end up with in this test?
Reply: n

Task item: Can you look up the reported call for CCN=c1cc2oc3cc(NCC)c(C)cc3c(-c3ccccc3C(=O)OCC)c-2cc1C for me?
Reply: n

Task item: Just curious, what result did CN(C)CCCN1c2ccccc2Sc2ccc(C(F)(F)F)cc21 get here?
Reply: n

Task item: Query: recorded result category for CCC(C)(C)c1cc(O)c(C(C)(C)CC)cc1O in this test
Reply: n

Task item: Look up the recorded call for O=S(=O)(O)CCCN1CCOCC1 in this test.
Reply: n

Task item: Which outcome was assigned to Oc1c(Br)cc(Br)c2cccnc12 in this test?
Reply: y

Task item: Recorded test outcome, item O=C1OC(OC(=O)c2cccnc2Nc2cccc(C(F)(F)F)c2)c2ccccc21 (stereo not given)
Reply: n

Task item: Fill in: this test's call for CCCCC(CC)COC(=O)c1ccc(O)cc1 (stereo not given) is ___
Reply: n

Task item: What was the test verdict on Clc1ccc(C(Cn2ccnc2)OCc2ccsc2Cl)c(Cl)c1 (stereo not given) ?
Reply: n

Task item: Per the records of this test, what outcome belongs to CC(=O)OC(OC(C)=O)c1ccc([N+](=O)[O-])o1 ?
Reply: n

Task item: Call for entry COc1cc(C(=O)NS(=O)(=O)c2ccccc2C)ccc1Cc1cn(C)c2ccc(NC(=O)OC3CCCC3)cc12 :
Reply: y

Task item: Write down the call the test reported for this compound. Item: c1ccc(Sc2ccccc2)cc1
Reply: n

Task item: How was S=C(SSSSSSC(=S)N1CCCCC1)N1CCCCC1 classified in this test?
Reply: n

Task item: Record request — test call for CCCC(CC)CCCCCCCN (stereo not given)
Reply: n

Task item: Check the results log: what was the call for Oc1ccc(-c2ccccc2)c(Cl)c1 ?
Reply: n

Task item: Given C=CC(C)(CCC=C(C)C)OC(=O)/C=C/c1ccccc1 (stereo not given) , state the outcome it received in this test.
Reply: n

Task item: Returns: the outcome recorded for C[Si](C)(C)Cl in this assay.
Reply: n

Task item: Recorded call for CC1(C)C(=O)N(Br)C(=O)N1Br ?
Reply: n

Task item: For this compound, state the assay outcome: C=CC(=O)OCCOCC(CC)(COCCOC(=O)C=C)COCCOC(=O)C=C
Reply: n

Task item: Tell me the assay call for COc1ccc2sc(C(=O)Nc3nnn[nH]3)c(OC(C)C)c2c1 please.
Reply: n

Task item: Recorded call for COCC(=O)O[C@]1(CCN(C)CCCc2nc3ccccc3[nH]2)CCc2cc(F)ccc2[C@@H]1C(C)C ?
Reply: n

Task item: Check the results log: what was the call for CN(C)CCCN1c2ccccc2CCc2ccccc21 ?
Reply: n

Task item: Please share the test call associated with NCCCCCCNCCCCCCN .
Reply: n

Task item: Query: recorded result category for SCCCCCCCCS in this test
Reply: n

Task item: Any idea what this test logged for O=C(Nc1ccc(Cl)cc1)Nc1ccc(Cl)c(C(F)(F)F)c1 ?
Reply: n

Task item: State the result this test recorded for Clc1ccccc1CN1CCc2sccc2C1 .
Reply: n

Task item: Hi, do you know how Cc1cccc(Br)c1 came out in this test?
Reply: n

Task item: Give the logged outcome of this assay for the following compound: CCCCCCCCCCCC(=O)N(CC)CC
Reply: n

Task item: Call for entry Cc1c(C(=O)O)cccc1[N+](=O)[O-] :
Reply: n

Task item: Any idea what this test logged for C(=C/c1ccccc1)/c1ccccc1 ?
Reply: n

Task item: Hello, I am checking results. What call was entered for CC(C)(C)CC(C)(C)c1ccccc1O ?
Reply: n

Task item: Look up the recorded call for CCN=C1C=CC(=C(c2ccc(N(CC)CC)cc2)c2ccc(N(CC)CC)cc2)c2ccccc21 in this test.
Reply: n

Task item: Give the logged outcome of this assay for the following compound: CC1CCCNC1 (stereo not given)
Reply: n

Task item: What did this assay record as the result for CC(=O)Oc1ccc(C2(c3ccc(OC(C)=O)cc3)C(=O)Nc3ccccc32)cc1 ?
Reply: n

Task item: Name the outcome recorded for CCN(CC)CCOc1ccc(C(O)(Cc2ccc(Cl)cc2)c2ccc(C)cc2)cc1 (stereo not given) in the assay.
Reply: n

Task item: Which outcome was assigned to CSc1c(Cl)c(Cl)c(Cl)c(Cl)c1Cl in this test?
Reply: n

Task item: Hi, do you know how CCCCCCCCCCCCCCNCCO came out in this test?
Reply: y

Task item: Dear all, I need the recorded test outcome for Cc1oc(-c2ccccc2)nc1CCOc1ccc(C[C@H](Nc2ccccc2C(=O)c2ccccc2)C(=O)O)cc1 , thank you.
Reply: n

Task item: Any idea what this test logged for C[C@@H]1CC[C@H]2C(C)(C)[C@H]3C[C@@]12CC[C@@]3(C)O ?
Reply: n

Task item: Test call for this compound, please: CCCCCCCCCCCCOC(=O)c1cc(O)c(O)c(O)c1
Reply: n

Task item: Lab log entry: C=C[C@](C)(O)CC[C@@H]1[C@@]2(C)CCCC(C)(C)[C@@H]2CC[C@@]1(C)O — outcome as called in the assay?
Reply: n
